Data origin, for the record: patent US20260130925A1

# TESTED_TARGET: PI3Kα H1047R in T47D cells (Homo sapiens, UniProt P42336, H1047R)
# Construct: endogenous in cells
# Sequence (P42336 whole entry H1047R): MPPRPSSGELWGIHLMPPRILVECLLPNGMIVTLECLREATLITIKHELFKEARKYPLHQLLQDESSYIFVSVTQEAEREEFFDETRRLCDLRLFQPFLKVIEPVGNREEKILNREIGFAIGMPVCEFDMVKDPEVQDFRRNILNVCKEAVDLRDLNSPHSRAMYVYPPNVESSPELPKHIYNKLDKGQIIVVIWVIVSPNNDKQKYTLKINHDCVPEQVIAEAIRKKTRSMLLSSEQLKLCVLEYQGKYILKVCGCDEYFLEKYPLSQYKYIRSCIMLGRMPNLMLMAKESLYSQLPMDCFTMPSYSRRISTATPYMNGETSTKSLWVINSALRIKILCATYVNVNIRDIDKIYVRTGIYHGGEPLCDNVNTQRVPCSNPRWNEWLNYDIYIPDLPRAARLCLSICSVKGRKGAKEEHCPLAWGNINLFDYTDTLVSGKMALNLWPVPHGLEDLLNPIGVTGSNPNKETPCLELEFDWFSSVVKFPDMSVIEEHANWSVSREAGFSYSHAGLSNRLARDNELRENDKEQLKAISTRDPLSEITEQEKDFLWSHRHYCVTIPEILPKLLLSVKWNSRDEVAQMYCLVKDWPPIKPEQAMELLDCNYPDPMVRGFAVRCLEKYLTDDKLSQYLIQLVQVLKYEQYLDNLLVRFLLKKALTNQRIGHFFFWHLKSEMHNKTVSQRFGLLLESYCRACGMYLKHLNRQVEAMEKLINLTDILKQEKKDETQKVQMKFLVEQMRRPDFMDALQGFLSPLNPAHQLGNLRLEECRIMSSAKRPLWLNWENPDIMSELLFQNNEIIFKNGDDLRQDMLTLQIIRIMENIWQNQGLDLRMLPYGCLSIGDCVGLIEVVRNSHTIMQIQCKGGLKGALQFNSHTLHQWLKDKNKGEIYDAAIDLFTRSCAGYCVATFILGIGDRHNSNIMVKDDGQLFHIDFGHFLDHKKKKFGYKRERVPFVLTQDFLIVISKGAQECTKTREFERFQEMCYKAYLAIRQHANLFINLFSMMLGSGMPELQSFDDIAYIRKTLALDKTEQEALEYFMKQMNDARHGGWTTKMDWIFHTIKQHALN
# Sequence (P27986 whole entry partner): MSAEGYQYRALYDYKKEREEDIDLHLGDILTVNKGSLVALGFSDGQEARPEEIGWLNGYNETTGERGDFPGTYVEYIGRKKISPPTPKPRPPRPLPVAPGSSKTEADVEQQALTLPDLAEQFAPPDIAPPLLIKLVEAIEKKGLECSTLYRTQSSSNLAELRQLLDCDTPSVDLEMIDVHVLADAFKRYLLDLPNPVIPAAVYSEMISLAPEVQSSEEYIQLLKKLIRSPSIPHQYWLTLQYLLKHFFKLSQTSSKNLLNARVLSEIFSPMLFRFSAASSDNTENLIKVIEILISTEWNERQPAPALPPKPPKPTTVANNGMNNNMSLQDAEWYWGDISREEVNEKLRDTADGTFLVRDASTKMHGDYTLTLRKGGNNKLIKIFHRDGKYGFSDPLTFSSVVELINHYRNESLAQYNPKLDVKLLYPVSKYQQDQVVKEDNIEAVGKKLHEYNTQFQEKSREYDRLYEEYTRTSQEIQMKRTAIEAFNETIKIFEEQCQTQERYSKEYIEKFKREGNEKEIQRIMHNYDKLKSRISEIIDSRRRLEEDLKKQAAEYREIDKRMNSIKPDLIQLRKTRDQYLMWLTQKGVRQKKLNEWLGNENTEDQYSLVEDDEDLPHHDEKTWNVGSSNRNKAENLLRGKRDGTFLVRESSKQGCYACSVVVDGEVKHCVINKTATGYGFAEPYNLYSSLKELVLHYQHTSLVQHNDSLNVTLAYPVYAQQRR
# PROTOCOL_DESCRIPTION: PI3Kα cellular assay: T47D pAKT S473 HTRF
# RUN_CONDITIONS: T47D cells (H1047R), serum starved, 1 hr compound, 20 ng/ml EGF 10 min

COMPOUND: Cc1cc(C(C)Nc2ccccc2C(=O)O)c2cc(-c3ccnc(C4CC4)c3)n(C)c(=O)c2c1 (centres unmarked)
IC50: < 750 nM

COMPOUND: Cc1cc(C(C)Nc2ccccc2C(=O)O)c2nc(N3CCC(C)(C)CC3)nc(C#N)c2c1 (centres unmarked) [Compound 26]
IC50: ≥ 2000 nM

COMPOUND: Cc1cc([C@@H](C)Nc2ccccc2C(=O)O)c2nc(N3CCC(C)(C)CC3)nc(O)c2c1
IC50: ≥ 2000 nM

COMPOUND: Cc1cc([C@@H](C)Nc2ccccc2C(=O)O)c2nc(N3CCC(C)(C)CC3)nc(N)c2c1
IC50: ≥ 2000 nM

COMPOUND: Cc1cc([C@@H](C)Nc2ccccc2C(=O)O)c2cc(-c3ccnc(C4CC4)c3)ncc2c1
IC50: < 750 nM

----------
# TESTED_TARGET: PI3K H1047R (Homo sapiens, UniProt P42336, H1047R)
# Sequence (P42336 whole entry H1047R): as the sequence (P42336 whole entry H1047R) above
# Sequence (P27986 whole entry partner): as the sequence (P27986 whole entry partner) above
# PROTOCOL_DESCRIPTION: PI3K H1047R ADP-Glo (PI/PS)
# RUN_CONDITIONS: PI/PS substrate
IC50 reference

COMPOUND: Cc1cc(C(C)Nc2ccccc2C(=O)O)c2cc(-c3ccc(F)cc3)n(C)c(=O)c2c1 (stereo not drawn)
TESTED_TARGET: PI3K H1047R (Homo sapiens, UniProt P42336, H1047R)
IC50: < 1000 nM
--
COMPOUND: Cc1cc([C@H](C)Nc2ccccc2C(=O)O)c2cc(N3CCOCC3)ncc2c1
TESTED_TARGET: PI3K H1047R (Homo sapiens, UniProt P42336, H1047R)
IC50: ≥ 10000 nM
--
COMPOUND: Cc1cc([C@@H](C)Nc2ccccc2C(=O)O)c2cc(-c3ccc(F)cc3)n(C)c(=O)c2c1
TESTED_TARGET: PI3K H1047R (Homo sapiens, UniProt P42336, H1047R)
IC50: < 1000 nM
